Measured values drawn from patent US11505811B2 for this set.

// reported Max. specific activity, OHB per item
# assay_details: OHB reductase activity, NADH absorption at 340 nm
# Type: biochemical
# condition_set: E. coli Mdh mutants; measured at 20 mM OHB
Your answer is read as µmol/mg/min, so omit the unit and give the number.

Here's what some known entries look like.
molecule	observed_value
Ec-Mdh: (L)-malate dehydrogenase from Escherichia coli, SEQ ID NO: 2 (protein, listed as Escherichia coli) MKVAVLGAAGGIGQALALLLKTQLPSGSELSLYDIAPVTPGVAVDLSHIPTAVKIKGFSGEDATPALEGADVVLISAGVARKPGMDRSDLFNVNAGIVKNLVQQVAKTCPKACIGIITNPVNTTVAIAAEVLKKAGVYDKNKLFGVTTLDIIRSNTFVAELKGKQPGEVEVPVIGGHSGVTILPLLSQVPGVSFTEQEVADLTKRIQNAGTEVVEAKAGGGSATLSMGQAAARFGLSLVRALQGEQGVVECAYVEGDGQYARFFSQPLLLGKNGVEERKSIGTLSAFEQNALEGMLDTLKKDIALGEEFVNK	0.01
R81A M85Q I12V: E. coli malate dehydrogenase mutant, SEQ ID No. 108 (protein, listed as Escherichia coli) MKVAVLGAAGGVGQALALLLKTQLPSGSELSLYDIAPVTPGVAVDLSHIPTAVKIKGFSGEDATPALEGADVVLISAGVAAKPGQDRSDLFNVNAGIVKNLVQQVAKTCPKACIGIITNPVNTTVAIAAEVLKKAGVYDKNKLFGVTTLDIIRSNTFVAELKGKQPGEVEVPVIGGHSGVTILPLLSQVPGVSFTEQEVADLTKRIQNAGTEVVEAKAGGGSATLSMGQAAARFGLSLVRALQGEQGVVECAYVEGDGQYARFFSQPLLLGKNGVEERKSIGTLSAFEQNALEGMLDTLKKDIALGEEFVNK	18.9

Consider now this further molecule.
Sample R81A M85E: E. coli malate dehydrogenase mutant, SEQ ID No. 106 (protein, listed as Escherichia coli) MKVAVLGAAGGIGQALALLLKTQLPSGSELSLYDIAPVTPGVAVDLSHIPTAVKIKGFSGEDATPALEGADVVLISAGVAAKPGEDRSDLFNVNAGIVKNLVQQVAKTCPKACIGIITNPVNTTVAIAAEVLKKAGVYDKNKLFGVTTLDIIRSNTFVAELKGKQPGEVEVPVIGGHSGVTILPLLSQVPGVSFTEQEVADLTKRIQNAGTEVVEAKAGGGSATLSMGQAAARFGLSLVRALQGEQGVVECAYVEGDGQYARFFSQPLLLGKNGVEERKSIGTLSAFEQNALEGMLDTLKKDIALGEEFVNK — what was its Max. specific activity, OHB?
3
